# TARGET SYSTEM: bovine serum albumin (BSA) (Bos taurus, UniProt P02769)
# Construct: purchased Sigma Aldrich
# Sequence (P02769 25-607): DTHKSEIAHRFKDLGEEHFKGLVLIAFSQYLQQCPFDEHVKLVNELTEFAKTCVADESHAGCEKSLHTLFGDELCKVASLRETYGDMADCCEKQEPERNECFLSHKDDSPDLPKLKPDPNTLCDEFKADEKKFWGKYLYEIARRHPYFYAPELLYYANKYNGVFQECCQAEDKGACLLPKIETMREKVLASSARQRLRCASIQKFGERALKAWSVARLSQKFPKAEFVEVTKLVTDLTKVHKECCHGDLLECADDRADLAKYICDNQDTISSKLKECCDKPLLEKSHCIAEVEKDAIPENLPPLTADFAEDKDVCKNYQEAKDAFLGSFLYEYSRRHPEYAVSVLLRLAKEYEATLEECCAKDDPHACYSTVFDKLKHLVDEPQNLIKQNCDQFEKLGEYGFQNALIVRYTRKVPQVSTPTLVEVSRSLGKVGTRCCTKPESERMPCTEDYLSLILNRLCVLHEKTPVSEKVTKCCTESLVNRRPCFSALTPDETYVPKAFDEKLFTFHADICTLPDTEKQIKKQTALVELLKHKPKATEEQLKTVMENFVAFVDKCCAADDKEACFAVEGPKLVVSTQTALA
# TEST PROTOCOL: NP TLC on plates impregnated with bovine serum albumin
# Assay type: binding
# MEASUREMENT PARAMETERS: Table S3, NP plate impregnated with 2 mg/mL BSA; pH 7.4 mobile phase
Assign a class from recorded NP (Rf, BSA-impregnated NP plate); defined classes: L (below 0.5), M (0.5 to below 0.9), H (0.9 or more)

Reference set (3 entries):
COMPOUND	TARGET SYSTEM	CLASSIFICATION
C[C@](N)(Cc1ccc(O)c(O)c1)C(=O)O	bovine serum albumin (BSA) (Bos taurus, UniProt P02769)	L
CN1C[C@H](C(=O)N[C@]2(C)O[C@@]3(O)[C@@H]4CCCN4C(=O)[C@H](Cc4ccccc4)N3C2=O)C[C@@H]2c3cccc4[nH]cc(c34)C[C@H]21 [dihydroergotamine]	bovine serum albumin (BSA) (Bos taurus, UniProt P02769)	M
Cc1ccc(-c2cc(C(F)(F)F)nn2-c2ccc(S(N)(=O)=O)cc2)cc1	bovine serum albumin (BSA) (Bos taurus, UniProt P02769)	H

Consider the record given below.
Please report the category associated with C[C@H]1c2cccc(O)c2C(=O)C2=C(O)[C@]3(O)C(=O)C(C(N)=O)=C(O)[C@@H](N(C)C)[C@@H]3[C@@H](O)[C@@H]21 , nothing else.
L
